// provenance: paper PMC6651170

Test details: in vitro
Measurement setup: dog

{"columns": ["Compound", "CC50"],
 "data": [
  ["COc1ncnc2c1ncn2C[C@H]1[C@@H]2CC(O)[C@H]1C[C@@H]2Cl (stereo partly drawn)", "> 972 µM"],
  ["OC1C[C@H]2[C@H](Cn3cnc4c(N5CCOCC5)ncnc43)[C@@H]1C[C@@H]2Cl (stereo partly drawn)", "> 600 µM"],
  ["Oc1ccc(CCNc2ncnc3c2ncn3C[C@H]2[C@@H]3CC(O)[C@H]2C[C@@H]3Cl)cc1 (stereo partly drawn)", "124 µM"],
  ["CCOC(=O)C1=C[C@@H](OC(CC)CC)[C@H](NC(C)=O)[C@@H](N)C1 [Oseltamivir, reference compound]", "> 100 µM"],
  ["CN1CCN(Nc2ncnc3c2ncn3C[C@H]2[C@@H]3CC(O)[C@H]2C[C@@H]3Cl)CC1 (stereo partly drawn)", "> 766 µM"],
  ["OC1C[C@H]2[C@H](Cn3cnc4c(NC5CCCCC5)ncnc43)[C@@H]1C[C@@H]2Cl (stereo partly drawn)", "42 µM"],
  ["O=c1ccn(C[C@@H]2[C@@H]3C[C@H](Cl)[C@H]2C[C@H]3O)c(=O)[nH]1", "> 1110 µM"],
  ["O=c1[nH]c(=O)n(C[C@H]2[C@@H]3CC(O)[C@H]2C[C@@H]3Cl)cc1F (stereo partly drawn)", "> 1040 µM"],
  ["OC1C[C@H]2[C@H](Cn3cnc4c(Cl)ncnc43)[C@@H]1C[C@@H]2Cl (stereo partly drawn)", "> 958 µM"]
]}
